System: A2780
procedure.summary: Cytotoxicity against human A2780 cells assessed as cell viability after 96 hrs by SRB assay
Format: functional, cell-based
experimental.context: Homo sapiens, A2780, 96 h
IC50 class ranges: LOW: < 4 µM; MEDIUM: ≥ 4 µM and < 10 µM; HIGH: ≥ 10 µM

[
  {
    "chemical.structure": "C=C(C)[C@@H]1CC[C@]2([C@H](O)C#CCN3CCCCCC3)CC[C@]3(C)[C@H](CC[C@@H]4[C@@]5(C)CC[C@H](OC(C)=O)C(C)(C)[C@@H]5CC[C@]43C)[C@@H]12",
    "measured.on": "A2780",
    "label.class": "HIGH"
  },
  {
    "chemical.structure": "C=C(C)[C@@H]1CC[C@]2([C@@H](O)C#CCN3CCCC3)CC[C@]3(C)[C@H](CC[C@@H]4[C@@]5(C)CC[C@H](OC(C)=O)C(C)(C)[C@@H]5CC[C@]43C)[C@@H]12",
    "measured.on": "A2780",
    "label.class": "MEDIUM"
  },
  {
    "chemical.structure": "C=C(C)[C@@H]1CC[C@]2([C@H](O)C#CCN3CCNCC3)CC[C@]3(C)[C@H](CC[C@@H]4[C@@]5(C)CC[C@H](OC(C)=O)C(C)(C)[C@@H]5CC[C@]43C)[C@@H]12.Cl",
    "measured.on": "A2780",
    "label.class": "LOW"
  }
]

Looking at "C=C(C)[C@@H]1CC[C@]2([C@@H](O)CCCN(C(C)C)C(C)C)CC[C@]3(C)[C@H](CC[C@@H]4[C@@]5(C)CC[C@H](O)C(C)(C)[C@@H]5CC[C@]43C)[C@@H]12" , which class would you pick?
LOW

Looking at "C=C(C)[C@@H]1CC[C@]2([C@H](O)C#CCN(C)C)CC[C@]3(C)[C@H](CC[C@@H]4[C@@]5(C)CC[C@H](OC(C)=O)C(C)(C)[C@@H]5CC[C@]43C)[C@@H]12.Cl" , which class would you pick?
MEDIUM

Looking at "C#C[C@H](O)[C@]12CC[C@@H](C(=C)C)[C@@H]1[C@H]1CC[C@@H]3[C@@]4(C)CC[C@H](OC(C)=O)C(C)(C)[C@@H]4CC[C@@]3(C)[C@]1(C)CC2" , which class would you pick?
MEDIUM

Looking at "C=C(C)[C@@H]1CC[C@]2([C@@H](O)C#CCN(Cc3ccccc3)Cc3ccccc3)CC[C@]3(C)[C@H](CC[C@@H]4[C@@]5(C)CC[C@H](OC(C)=O)C(C)(C)[C@@H]5CC[C@]43C)[C@@H]12" , which class would you pick?
HIGH

Looking at "C=C(C)[C@@H]1CC[C@]2([C@H](O)C#CCN(CCC)CCC)CC[C@]3(C)[C@H](CC[C@@H]4[C@@]5(C)CC[C@H](OC(C)=O)C(C)(C)[C@@H]5CC[C@]43C)[C@@H]12" , which class would you pick?
HIGH

Looking at "C=C(C)[C@@H]1CC[C@]2([C@H](O)C#CCN(C(C)C)C(C)C)CC[C@]3(C)[C@H](CC[C@@H]4[C@@]5(C)CC[C@H](O)C(C)(C)[C@@H]5CC[C@]43C)[C@@H]12" , which class would you pick?
MEDIUM

Looking at "C=CCN(CC#C[C@@H](O)[C@]12CC[C@@H](C(=C)C)[C@@H]1[C@H]1CC[C@@H]3[C@@]4(C)CC[C@H](OC(C)=O)C(C)(C)[C@@H]4CC[C@@]3(C)[C@]1(C)CC2)CC=C" , which class would you pick?
HIGH

Looking at "C=C(C)[C@@H]1CC[C@]2([C@@H](O)C#CCN(CCC)CCC)CC[C@]3(C)[C@H](CC[C@@H]4[C@@]5(C)CC[C@H](OC(C)=O)C(C)(C)[C@@H]5CC[C@]43C)[C@@H]12.CI" , which class would you pick?
LOW

Looking at "C=C(C)[C@@H]1CC[C@]2([C@H](O)C#CCN3CCCC3)CC[C@]3(C)[C@H](CC[C@@H]4[C@@]5(C)CCC(=O)C(C)(C)[C@@H]5CC[C@]43C)[C@@H]12" , which class would you pick?
LOW

Looking at "C=C(C)[C@@H]1CC[C@]2(C(=O)O)CC[C@]3(C)[C@H](CC[C@@H]4[C@@]5(C)CC[C@H](O)C(C)(C)[C@@H]5CC[C@]43C)[C@@H]12" , which class would you pick?
HIGH
